Tested on: Endogenous Huntingtin Protein
Assay: Endogenous Huntingtin Protein Assay (ELISA-based MSD electrochemiluminescence)
Format: cell-based
Settings: Table 1
measuredProperty: IC50

Give recorded IC50. Cn1cc2cc(-c3nc4ccc(C5=CCNCC5)cc4s3)ccc2n1 [Compound 4]
100 to 500 nM

Give recorded IC50. Cc1cn2nc(-c3cnc4nc(N(C)C5CC(C)(C)NC(C)(C)C5)sc4n3)ccc2n1 [Compound 141]
≤ 100 nM

Give recorded IC50. CN(c1nc2c(F)cc(-c3ccc4nn(C)cc4n3)cc2s1)C1CC2CCC(C1)N2 (centres unmarked) [Compound 237]
100 to 500 nM

Give recorded IC50. Cc1cn2nc(-c3cc(F)c4nc(N5CCCNCC5)sc4c3)cc(C)c2n1 [Compound 121]
≤ 100 nM

Give recorded IC50. Oc1cc(-c2c[nH]nc2F)ccc1-c1cc2sc(N3CC4(CCNCC4)C3)nc2nn1 [Compound 341]
500 to 1000 nM

Give recorded IC50. COc1cc(-c2cc(C)c3nn(C)cc3c2)cc2sc(C3CCNCC3)nc12 [Compound 99]
1000 to 3000 nM

Give recorded IC50. Cn1cc2cc(-c3cc(F)c4nc(C5CCNCC5)sc4c3)cc(C#N)c2n1 [Compound 104]
≤ 100 nM

Give recorded IC50. Cc1cn2cc(-c3ncc4nc(N(C)C5CC(C)(C)NC(C)(C)C5)sc4n3)cc2c(C)n1 [Compound 265]
≤ 100 nM

Give recorded IC50. CN(c1nc2cnc(-c3cc(F)c4nn(C)cc4c3)nc2s1)C1CC2(C)CC[C@](C)(C1)N2 (some centres unmarked) [Compound 289]
≤ 100 nM

Give recorded IC50. Cc1cn2cc(-c3cc4sc(N(C)C5CC(C)(C)NC(C)(C)C5)nc4cn3)cc(C(F)(F)F)c2n1 [Compound 116]
100 to 500 nM

Give recorded IC50. CN1CC[C@@H]2CCN(c3nc4nnc(-c5ccc(-c6cn[nH]c6)cc5O)cc4s3)[C@@H]2C1 [Compound 369]
100 to 500 nM

Give recorded IC50. Cc1cc(-c2cnc3nc(N(C)C4CC(C)(C)NC(C)(C)C4)sc3c2)cc2cn(C)nc12 [Compound 17]
100 to 500 nM

Give recorded IC50. CN(c1nc2nnc(-c3ccc(-c4c[nH]nc4F)cc3O)cc2s1)C1CCNCC1 [Compound 329]
≤ 100 nM

Give recorded IC50. Cc1cn2nc(-c3cc(F)c4nc(C5CCNCC5)sc4c3)cc(C(=O)O)c2n1 [Compound 219]
1000 to 3000 nM

Give recorded IC50. CN(c1nc2nnc(-c3ccc(-c4cn[nH]c4)cc3O)cc2s1)C1CCNCC1(C)C (centres unmarked) [Compound 355]
≤ 100 nM

Give recorded IC50. Cc1cn2nc(-c3cc(F)c4nc(N(C)C5CC(C)(C)NC(C)(C)C5)sc4c3)ccc2n1 [Compound 37]
≤ 100 nM

Give recorded IC50. CC[C@]12CC[C@](CC)(CC(N(C)c3nc4cnc(-c5cc(C#N)c6nc(C)cn6c5)nc4s3)C1)N2 (some centres unmarked) [Compound 303]
≤ 100 nM

Give recorded IC50. Cc1cc(-c2cc3sc(N(C)C4CC(C)(C)NC(C)(C)C4)nc3nn2)cc2cn(C)nc12 [Compound 118]
100 to 500 nM

Give recorded IC50. Cc1cn2cc(-c3cc(F)c4nc(C5CCNCC5)sc4c3)cc(F)c2n1 [Compound 152]
≤ 100 nM

Give recorded IC50. Cc1cn2cc(-c3cc4sc(OC5CC(C)(C)NC(C)(C)C5)nc4cn3)cc(F)c2n1 [Compound 310]
≤ 100 nM

Give recorded IC50. Cc1cn2cc(-c3cc4sc(N(C)C5CC6(C)CCC(C)(C5)N6)nc4cn3)nc2c(C)n1 (centres unmarked) [Compound 322]
≤ 100 nM

Give recorded IC50. CN(c1nc2cnc(-c3cc(C#N)c4nn(C)cc4c3)nc2s1)C1CCNCC1 [Compound 193]
≤ 100 nM

Give recorded IC50. Cc1cn2cc(-c3cc4sc(N(C)C5CC(C)(C)NC(C)(C)C5)nc4cn3)cnc2n1 [Compound 105]
100 to 500 nM

Give recorded IC50. Cc1cn2cc(-c3cc4sc(N(C)C5CC6CCC(C5)N6)nc4cn3)cc(C#N)c2n1 (centres unmarked) [Compound 203]
≤ 100 nM

Give recorded IC50. CC1CC(N(C)c2nc3ccc(-c4ccc5nn(C)cc5c4)cc3s2)CC(C)N1 (centres unmarked) [Compound 176]
≤ 100 nM

Give recorded IC50. Cc1cc(-c2cnc3nc(N(C)C4CC(C)(C)NC(C)(C)C4)sc3n2)cc2cn(C)nc12 [Compound 131]
≤ 100 nM

Give recorded IC50. Oc1cc(-c2cn[nH]c2)ccc1-c1cc2sc(N3CC[C@H]4CCNC[C@H]43)nc2nn1 [Compound 362]
≤ 100 nM

Give recorded IC50. Cc1cn2cc(-c3cc(F)c4nc(OC5CCNCC5)sc4c3)cc(C#N)c2n1 [Compound 317]
≤ 100 nM

Give recorded IC50. CCc1cc(-c2ccc3nc(N(C)C4CC(C)(C)NC(C)(C)C4)sc3c2)cn2cc(C)nc12 [Compound 93]
100 to 500 nM

Give recorded IC50. Cc1cc(-c2cc(O)c3nc(C4CCNCC4)sc3c2)cc2cn(C)nc12 [Compound 134]
100 to 500 nM

Give recorded IC50. Cc1cn2nc(-c3cc(F)c4nc(N(C)[C@H]5CCN[C@@H](C)C5)sc4c3)ccc2n1 [Compound 258]
≤ 100 nM

Give recorded IC50. CC1CC(N(C)c2nc3cnc(-c4cc(F)c5nn(C)cc5c4)cc3s2)CCN1C (centres unmarked) [Compound 378]
100 to 500 nM

Source of measurements: patent US12139499B2
